biological target: Cytochrome P450 3A4 (Homo sapiens, UniProt P08684)
Sequence (P08684 whole entry): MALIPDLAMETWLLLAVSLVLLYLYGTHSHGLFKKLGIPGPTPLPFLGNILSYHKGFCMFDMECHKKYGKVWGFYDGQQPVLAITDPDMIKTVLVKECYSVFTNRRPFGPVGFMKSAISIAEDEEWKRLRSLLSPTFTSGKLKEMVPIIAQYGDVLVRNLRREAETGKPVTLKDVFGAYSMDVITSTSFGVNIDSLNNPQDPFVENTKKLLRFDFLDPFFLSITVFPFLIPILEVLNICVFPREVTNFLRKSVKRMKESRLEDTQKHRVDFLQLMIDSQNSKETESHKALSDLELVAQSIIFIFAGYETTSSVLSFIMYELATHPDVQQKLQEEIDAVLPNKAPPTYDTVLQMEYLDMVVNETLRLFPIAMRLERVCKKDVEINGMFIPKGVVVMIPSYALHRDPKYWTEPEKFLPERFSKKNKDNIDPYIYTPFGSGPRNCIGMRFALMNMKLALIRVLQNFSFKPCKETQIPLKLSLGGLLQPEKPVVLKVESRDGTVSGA
pIC50: −log10 of the molar value.
READOUT: pIC50

Any idea what pIC50 came out for CC(C)(C)[C@@H](CO)NC(=O)c1nn(-c2c[n+]([O-])ccn2)c2c1C[C@@H]1C[C@H]21 on Cytochrome P450 3A4 (Homo sapiens, UniProt P08684)? < 4.30

----------
experiment: Protein binding in rat plasma assessed as unbound fraction; type: ADME, cell-free
READOUT: fraction unbound

I would be grateful if you could share the reported fraction unbound for CC(C)(C)[C@@H](CO)NC(=O)c1nn(-c2c[n+]([O-])ccn2)c2c1C[C@@H]1C[C@H]21 [OLORINAB] . 0.1 to 0.2

----------
assay: Half life in human liver microsomes; assay type: ADME, microsome
half-life overview

>>> recorded_result("CC(C)(C)[C@@H](CO)NC(=O)c1nn(-c2c[n+]([O-])ccn2)c2c1C[C@@H]1C[C@H]21")
"> 1 h"
>>> recorded_result("O=C(N[C@H](CO)C(F)(F)F)c1nn(-c2c[n+]([O-])ccn2)c2c1C[C@@H]1C[C@H]21")
"> 1 h"
>>> recorded_result("CC(C)[C@@H](CF)NC(=O)c1nn(-c2c[n+]([O-])ccn2)c2c1C[C@@H]1C[C@H]21")
"> 1 h"

Now look at this entry.
I would be grateful if you could share the reported half-life for O=C(N[C@@H](CO)C(F)(F)F)c1nn(-c2c[n+]([O-])ccn2)c2c1C[C@@H]1C[C@H]21 . > 1 h

----------
test: Aqueous solubility of the compound at pH 2 to 7 using solid samples; format: physicochemical; conditions: aqueous solution
READOUT: solubility thermodynamic (µg/mL)
// return numeric value only (unit: µg/mL, not printed)

I would be grateful if you could share the reported solubility thermodynamic for CC(C)(C)[C@@H](CO)NC(=O)c1nn(-c2c[n+]([O-])ccn2)c2c1C[C@@H]1C[C@H]21 . 2000

----------
molecular target: Cannabinoid receptor 1 (Homo sapiens); assay: Agonist activity at recombinant human CB1 receptor expressed in HEK293 cells assessed as increase in beta arrestin recruitment measured after 2 to 3 hrs by PathHunter assay
pEC50: −log10 of the molar value.
READOUT: pEC50

Solved entries:
>>> recorded_result("O=C(NC1(C(F)(F)F)CCC1)c1nn(-c2c[n+]([O-])ccn2)c2c1C[C@@H]1C[C@H]21")
"< 5.00"
>>> recorded_result("CC(C)(NC(=O)c1nn(-c2c[n+]([O-])ccn2)c2c1C[C@@H]1C[C@H]21)C(F)(F)F")
"< 5.00"
>>> recorded_result("CC(C)(C)[C@@H](CO)NC(=O)c1nn(-c2cnccn2)c2c1C[C@H]1C[C@@H]21")
"< 5.00"
>>> recorded_result("O=C(NC1(C(F)(F)F)CC1)c1nn(-c2c[n+]([O-])ccn2)c2c1C[C@@H]1C[C@H]21")
"< 5.00"
>>> recorded_result("CC(C)[C@@H](CF)NC(=O)c1nn(-c2c[n+]([O-])ccn2)c2c1C[C@@H]1C[C@H]21")
5.21

I would be grateful if you could share the reported pEC50 for O=C(N[C@@H](CO)C(F)(F)F)c1nn(-c2c[n+]([O-])ccn2)c2c1C[C@@H]1C[C@H]21 . < 5.00

I would be grateful if you could share the reported pEC50 for CC(C)(C)[C@@H](CF)NC(=O)c1nn(-c2c[n+]([O-])ccn2)c2c1C[C@@H]1C[C@H]21 . 5.96

I would be grateful if you could share the reported pEC50 for CC(C)(C)[C@@H](CO)NC(=O)c1nn(-c2cnccn2)c2c1C[C@@H]1C[C@H]21 . < 5.00

I would be grateful if you could share the reported pEC50 for O=C(N[C@H](CO)c1ccccc1)c1nn(-c2c[n+]([O-])ccn2)c2c1C[C@@H]1C[C@H]21 . < 5.00

I would be grateful if you could share the reported pEC50 for O=C(N[C@H](CO)C(F)(F)F)c1nn(-c2c[n+]([O-])ccn2)c2c1C[C@@H]1C[C@H]21 . < 5.00

I would be grateful if you could share the reported pEC50 for O=C(NC1(CO)CCCC1)c1nn(-c2c[n+]([O-])ccn2)c2c1C[C@@H]1C[C@H]21 . < 5.00

----------
biological target: Cytochrome P450 2C9 (Homo sapiens, UniProt P11712)
Sequence (P11712 whole entry): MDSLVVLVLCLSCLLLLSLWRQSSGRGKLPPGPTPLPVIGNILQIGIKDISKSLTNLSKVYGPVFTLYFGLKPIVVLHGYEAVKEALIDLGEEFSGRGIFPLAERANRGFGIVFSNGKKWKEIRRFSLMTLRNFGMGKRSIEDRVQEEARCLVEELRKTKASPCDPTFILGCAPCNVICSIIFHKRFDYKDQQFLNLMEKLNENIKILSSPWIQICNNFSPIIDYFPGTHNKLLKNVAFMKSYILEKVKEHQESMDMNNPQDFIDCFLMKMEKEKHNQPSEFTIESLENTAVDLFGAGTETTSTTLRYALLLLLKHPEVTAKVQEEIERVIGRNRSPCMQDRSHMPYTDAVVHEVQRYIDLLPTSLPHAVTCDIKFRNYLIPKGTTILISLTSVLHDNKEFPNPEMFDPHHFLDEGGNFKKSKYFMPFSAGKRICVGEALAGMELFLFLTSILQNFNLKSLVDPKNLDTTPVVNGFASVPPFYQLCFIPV
READOUT: IC50

I would be grateful if you could share the reported IC50 for CC(C)(C)[C@@H](CO)NC(=O)c1nn(-c2c[n+]([O-])ccn2)c2c1C[C@@H]1C[C@H]21 . > 50 µM

----------
Target: Cannabinoid receptor 2 (Rattus norvegicus)
Sequence (Q9QZN9 whole entry): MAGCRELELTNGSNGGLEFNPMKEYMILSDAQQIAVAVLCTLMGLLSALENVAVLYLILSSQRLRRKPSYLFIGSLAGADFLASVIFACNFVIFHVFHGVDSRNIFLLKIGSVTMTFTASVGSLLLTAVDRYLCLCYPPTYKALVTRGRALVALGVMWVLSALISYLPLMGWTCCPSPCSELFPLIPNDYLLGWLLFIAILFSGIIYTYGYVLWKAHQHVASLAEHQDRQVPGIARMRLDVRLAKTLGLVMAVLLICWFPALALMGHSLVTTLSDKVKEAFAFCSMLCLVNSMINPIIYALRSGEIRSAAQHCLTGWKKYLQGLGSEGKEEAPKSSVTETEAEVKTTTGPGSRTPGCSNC
Assay: Agonist activity at recombinant rat CB2 receptor expressed in HEK293 cells assessed as increase in beta arrestin recruitment measured after 2 to 3 hrs by PathHunter assay
READOUT: pEC50
To interpret pEC50, take it as minus log10 of a concentration measured in moles per litre.

>>> recorded_result("O=C(NC1(C(F)(F)F)CC1)c1nn(-c2c[n+]([O-])ccn2)c2c1C[C@@H]1C[C@H]21")
7.84
>>> recorded_result("CC(C)(C)[C@@H](CO)NC(=O)c1nn(-c2cnccn2)c2c1C[C@@H]1C[C@H]21")
7.28
>>> recorded_result("CC(C)[C@@H](CF)NC(=O)c1nn(-c2c[n+]([O-])ccn2)c2c1C[C@@H]1C[C@H]21")
8.19
>>> recorded_result("O=C(NC1(CO)CCCC1)c1nn(-c2c[n+]([O-])ccn2)c2c1C[C@@H]1C[C@H]21")
8.17
>>> recorded_result("O=C(N[C@@H](CO)C(F)(F)F)c1nn(-c2c[n+]([O-])ccn2)c2c1C[C@@H]1C[C@H]21")
7.46

Any idea what pEC50 came out for O=C(N[C@H](CO)c1ccccc1)c1nn(-c2c[n+]([O-])ccn2)c2c1C[C@@H]1C[C@H]21 on Cannabinoid receptor 2 (Rattus norvegicus)? 7.22

----------
target: Cannabinoid receptor 1 (Homo sapiens, UniProt P21554); assay: Agonist activity at recombinant human CB1 receptor expressed in HEK293 cells assessed as increase in beta arrestin recruitment measured after 2 to 3 hrs by PathHunter assay
Sequence (P21554 whole entry): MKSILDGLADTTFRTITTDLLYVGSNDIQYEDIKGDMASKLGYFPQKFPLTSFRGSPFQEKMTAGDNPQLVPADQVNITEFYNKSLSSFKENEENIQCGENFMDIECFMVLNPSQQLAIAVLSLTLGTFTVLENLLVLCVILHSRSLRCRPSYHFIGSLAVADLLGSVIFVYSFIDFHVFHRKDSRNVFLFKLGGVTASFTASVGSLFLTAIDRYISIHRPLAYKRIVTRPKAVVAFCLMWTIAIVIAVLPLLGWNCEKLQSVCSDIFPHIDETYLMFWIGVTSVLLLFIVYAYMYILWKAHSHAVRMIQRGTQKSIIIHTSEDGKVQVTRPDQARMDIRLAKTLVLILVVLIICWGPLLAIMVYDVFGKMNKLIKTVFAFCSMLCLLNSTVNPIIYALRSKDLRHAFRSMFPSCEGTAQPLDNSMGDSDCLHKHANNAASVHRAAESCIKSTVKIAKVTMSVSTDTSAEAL
pEC50: −log10 of the molar value.
READOUT: pEC50

Solved entries:
>>> recorded_result("CC(C)(C)[C@H](CO)NC(=O)c1nn(-c2cnccn2)c2c1C[C@@H]1C[C@H]21")
"< 5.00"
>>> recorded_result("CC1(NC(=O)c2nn(-c3c[n+]([O-])ccn3)c3c2C[C@@H]2C[C@H]32)CC1")
"< 5.00"

Now look at this entry.
Any idea what pEC50 came out for CC(C)[C@@H](CO)NC(=O)c1nn(-c2c[n+]([O-])ccn2)c2c1C[C@@H]1C[C@H]21 on Cannabinoid receptor 1 (Homo sapiens, UniProt P21554)? < 5.00

----------
target: Cannabinoid receptor 2 (Rattus norvegicus, UniProt Q9QZN9); assay: Agonist activity at recombinant rat CB2 receptor expressed in HEK293 cells assessed as increase in beta arrestin recruitment measured after 2 to 3 hrs by PathHunter assay
READOUT: log10(EC50) (log10 of the value in nM)
# values: log10(EC50), units nM

I would be grateful if you could share the reported log10(EC50) for CC(C)(NC(=O)c1nn(-c2c[n+]([O-])ccn2)c2c1C[C@@H]1C[C@H]21)C(F)(F)F . 0.80

I would be grateful if you could share the reported log10(EC50) for CC(C)(C)[C@@H](CO)NC(=O)c1nn(-c2c[n+]([O-])ccn2)c2c1C[C@@H]1C[C@H]21 . 0.88

I would be grateful if you could share the reported log10(EC50) for CC(C)(C)[C@@H](CO)NC(=O)c1nn(-c2cnccn2)c2c1C[C@H]1C[C@@H]21 . 1.32

I would be grateful if you could share the reported log10(EC50) for CC(C)[C@@H](CO)NC(=O)c1nn(-c2c[n+]([O-])ccn2)c2c1C[C@@H]1C[C@H]21 . 1.74

I would be grateful if you could share the reported log10(EC50) for O=C(NC1(C(F)(F)F)CCC1)c1nn(-c2c[n+]([O-])ccn2)c2c1C[C@@H]1C[C@H]21 . 0.20
